Test system: pigweed (Amaranthus retroflexus)
experiment_summary: Test C greenhouse herbicide test, pre- and postemergence
Assay type: in vivo
protocol_conditions: Preemergence, 250 g ai/ha; scale 0 to 100, 0 no effect, 100 complete control
quantity_measured: Pigweed plant response rating
API doc: respond with a numeric literal and nothing else, no unit.

A selection of reference data follows.
compound: CCc1sc2c(C)cc(C)cc2c1-c1c(O)c(C)nn(C)c1=O [Compound 57]
Pigweed plant response rating: 100

compound: CC(=O)Oc1c(C)nn(C)c(=O)c1-c1c(C)sc2ccc(Cl)cc12 [Compound 108]
Pigweed plant response rating: 100

## Task Query the reported Pigweed plant response rating for pigweed (Amaranthus retroflexus); item: CC(=O)Oc1c(C)nn(C)c(=O)c1-c1c(C)sc2ccc(C(F)(F)F)cc12 [Compound 132]
## Result 100

## Task Now consider Cc1nn(C)c(=O)c(-c2c(C)sc3ccc(C(F)(F)F)cc23)c1O [Compound 121] and answer again.
## Result 100

## Task Now consider Cc1cc(C)c2sc(C)c(-c3c(O)c(C)nn(C)c3=O)c2c1 [Compound 2] and answer again.
## Result 100

## Task Now consider CC(=O)Oc1c(Cl)nn(C)c(=O)c1-c1c(C)sc2ccc(Cl)cc12 [Compound 116] and answer again.
## Result 100

## Task Now consider CCC(=O)Oc1c(OC)nn(C)c(=O)c1-c1c(C)sc2ccc(Cl)cc12 [Compound 131] and answer again.
## Result 100

Hey, just so you know, these numbers are from patent US10597388B2.
